Target: human S1PR5 receptor (Homo sapiens, UniProt Q9H228)
Construct: host or cells: CHO-K1
Sequence (Q9H228 whole entry): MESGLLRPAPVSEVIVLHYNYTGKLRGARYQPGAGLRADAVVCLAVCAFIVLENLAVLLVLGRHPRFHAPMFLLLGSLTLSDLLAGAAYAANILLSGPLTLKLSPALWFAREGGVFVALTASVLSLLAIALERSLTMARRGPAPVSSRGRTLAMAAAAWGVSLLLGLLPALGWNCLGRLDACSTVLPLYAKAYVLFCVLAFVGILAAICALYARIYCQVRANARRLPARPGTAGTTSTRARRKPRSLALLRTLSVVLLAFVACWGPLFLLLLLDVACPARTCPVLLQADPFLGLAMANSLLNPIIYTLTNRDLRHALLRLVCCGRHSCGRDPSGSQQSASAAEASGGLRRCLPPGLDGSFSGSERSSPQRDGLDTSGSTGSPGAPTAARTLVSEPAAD
Test: Method 1: intracellular Ca2+ release (FLIPR, Calcium 5) in recombinant CHO-K1 cells
Assay type: cell-based
Details: agonist potency, determined with method 1 (symbols A-D); read-out: S1P5 EC50 range
Below, each of the molecules is paired with its reported EC50 value.
Observable: EC50

- Molecule: "CC(CC(=O)O)CN1CCc2nc(-c3ccc(OCc4ccccc4C(F)(F)F)cc3)ncc2C1 (centres unmarked)"
  Observable: "EC50"
  Reported measurement: "< 10 nM"
- Molecule: "O=C(O)CCN1CCc2ncc(-c3ccc(OCc4ccccc4)cc3)nc2C1"
  Observable: "EC50"
  Reported measurement: "1000 to 10000 nM"
- Molecule: "CC(CC(=O)O)CN1CCc2nc(-c3ccc(CCc4ccc(Cl)cc4F)cc3)ncc2C1 (centres unmarked)"
  Observable: "EC50"
  Reported measurement: "< 10 nM"
- Molecule: "O=C(O)CCN1CCc2nc(-c3ccc(OCc4ccc(Cl)cc4)cc3)ncc2C1"
  Observable: "EC50"
  Reported measurement: "< 10 nM"
- Molecule: "Cc1cc(-c2ncc3c(n2)CCN(C[C@H](C)CC(=O)O)C3)ccc1OCc1ccc(Cl)cc1"
  Observable: "EC50"
  Reported measurement: "100 to 1000 nM"
- Molecule: "CC(CC(=O)O)CN1CCc2nc(-c3ccc(C(F)(F)Cc4ccc(Cl)cc4F)cc3)ncc2C1 (centres unmarked)"
  Observable: "EC50"
  Reported measurement: "10 to 100 nM"
- Molecule: "O=C(O)C1CCC(N2CCc3nc(-c4ccc(OCc5ccc(Cl)cc5)cc4)ncc3C2)C1 (centres unmarked)"
  Observable: "EC50"
  Reported measurement: "100 to 1000 nM"
- Molecule: "Cc1ccccc1C#Cc1ccc2c(n1)CCN(C1CC(C(=O)O)C1)C2 (centres unmarked)"
  Observable: "EC50"
  Reported measurement: "1000 to 10000 nM"

* * *

Below, each of the compounds is paired with its reported EC50 value.
Molecular target: human S1PR5 receptor (Homo sapiens)
Construct: host or cells: CHO-K1
Experiment: Method 1: intracellular Ca2+ release (FLIPR, Calcium 5) in recombinant CHO-K1 cells
Format: cell-based
Details: agonist potency, determined with method 1 (symbols A-D); read-out: S1P5 EC50 range

- Compound: "CC(CC(=O)O)CN1CCc2nc(-c3ccc(OCc4c(Cl)cccc4Cl)cc3)ncc2C1 (stereo not shown) [Compound 243]"
  EC50: "< 10 nM"
- Compound: "O=C(O)CC1CC(N2CCc3nc(-c4ccc(OCc5cccc(Cl)c5)cc4)ncc3C2)C1 (stereo not shown) [Compound 3]"
  EC50: "100 to 1000 nM"
- Compound: "Cc1cc(-c2ccc3c(n2)CCN(C2CC(C(=O)O)C2)C3)ccc1OCc1ccccc1 (stereo not shown) [Compound 117]"
  EC50: "100 to 1000 nM"
- Compound: "O=C(O)CCCN1CCc2nc(Cc3ccccc3)ncc2C1 [Compound 50]"
  EC50: "1000 to 10000 nM"
- Compound: "O=C(O)C1CC(N2CCc3nc(C#Cc4ccc(OCc5ccccc5)cc4)ncc3C2)C1 (stereo not shown) [Compound 59]"
  EC50: "1000 to 10000 nM"
- Compound: "CC(CC(=O)O)CN1CCc2nc(-c3ccc(OCc4ccc(Cl)c(Cl)c4)cc3F)ncc2C1 (stereo not shown) [Compound 271]"
  EC50: "10 to 100 nM"
- Compound: "Cc1cc(C)cc(COc2ccc(-c3ncc4c(n3)CCN(CC(C)CC(=O)O)C4)c(F)c2)c1 (stereo not shown) [Compound 313]"
  EC50: "100 to 1000 nM"

* * *

Target: human S1PR5 receptor (Homo sapiens, UniProt Q9H228)
Construct: host or cells: CHO-K1
Assay: Method 1: intracellular Ca2+ release (FLIPR, Calcium 5) in recombinant CHO-K1 cells
Type: cell-based
Settings: agonist potency, determined with method 1 (symbols A-D); read-out: S1P5 EC50 range
Below, each of the compounds is paired with its reported EC50 value.

- Compound: "O=C(O)CCN1CCc2cc(-c3ccc(OCc4cccc(F)c4)cc3)ncc2C1 [Compound 176]"
  EC50: "< 10 nM"
- Compound: "O=C(O)CCN1CCc2nc(-c3ccc(OCc4cccc(OC(F)(F)F)c4)cc3)ccc2C1 [Compound 151]"
  EC50: "< 10 nM"
- Compound: "Cc1ccc(COc2ccc(-c3ccc4c(n3)CCN(CCC(=O)O)C4)cc2)cc1C(F)(F)F [Compound 154]"
  EC50: "10 to 100 nM"
- Compound: "O=C(O)CCCN1CCc2nc(-c3ccc(OCc4cccc(F)c4)cc3)ccc2C1 [Compound 116]"
  EC50: "< 10 nM"
- Compound: "Cc1ccc(C)c(COc2ccc(-c3ncc4c(n3)CCN(CC(C)CC(=O)O)C4)cc2C)c1 (stereo not drawn) [Compound 311]"
  EC50: "100 to 1000 nM"
- Compound: "O=C(O)CC1(CN2CCc3nc(-c4ccc(OCc5ccc(Cl)cc5)cc4)ncc3C2)CC1 [Compound 281]"
  EC50: "10 to 100 nM"
- Compound: "CSc1ccc(COc2ccc(-c3ncc4c(n3)CCN(CC(C)CC(=O)O)C4)cc2)cc1 (stereo not drawn) [Compound 257]"
  EC50: "10 to 100 nM"
- Compound: "CC(C)Oc1ccc(-c2ncc3c(n2)CCN(CCC(=O)O)C3)cc1 [Compound 75]"
  EC50: "1000 to 10000 nM"
- Compound: "O=C(O)CCN1CCc2nc(-c3ccc(OCc4ccc(F)c(F)c4)cc3)c(F)cc2C1 [Compound 198]"
  EC50: "< 10 nM"
- Compound: "O=C(O)CCN1CCc2nc(-c3ccc(OCc4ccccc4C(F)F)cc3)ccc2C1 [Compound 165]"
  EC50: "< 10 nM"
- Compound: "O=C(O)C1CC(N2CCc3nc(C#Cc4ccc(F)cc4)ncc3C2)C1 (stereo not drawn) [Compound 57]"
  EC50: "1000 to 10000 nM"
- Compound: "CC(CC(=O)O)CN1CCc2nc(-c3ccc(CCc4ccccc4)cc3F)ncc2C1 (stereo not drawn) [Compound 280]"
  EC50: "10 to 100 nM"
- Compound: "O=C(O)CCCN1CCc2nc(-c3ccc(OCc4ccccc4)cc3)ccc2C1 [Compound 115]"
  EC50: "< 10 nM"
- Compound: "CC(CN1CCc2nc(-c3ccc(OCc4cc(Cl)cc(Cl)c4)cc3)ncc2C1)C(=O)O (stereo not drawn) [Compound 17]"
  EC50: "< 10 nM"
- Compound: "O=C(O)CN1CCc2nc(-c3ccc(OCc4cccc(Cl)c4)cc3)ncc2C1 [Compound 32]"
  EC50: "100 to 1000 nM"

* * *

Molecular target: human S1PR1 receptor (Homo sapiens, UniProt P21453)
Sequence (P21453 whole entry): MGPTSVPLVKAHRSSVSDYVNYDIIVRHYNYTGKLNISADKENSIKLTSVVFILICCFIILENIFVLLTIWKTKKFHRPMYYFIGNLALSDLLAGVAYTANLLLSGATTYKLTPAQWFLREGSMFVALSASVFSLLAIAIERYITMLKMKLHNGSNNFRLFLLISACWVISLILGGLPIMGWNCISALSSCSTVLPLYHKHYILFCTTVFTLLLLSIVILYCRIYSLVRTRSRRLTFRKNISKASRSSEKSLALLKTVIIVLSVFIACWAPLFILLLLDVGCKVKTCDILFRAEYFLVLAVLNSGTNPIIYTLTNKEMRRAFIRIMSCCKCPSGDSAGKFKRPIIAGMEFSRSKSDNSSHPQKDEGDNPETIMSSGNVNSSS
Assay: Method 1: intracellular Ca2+ release (FLIPR, Calcium 5) in recombinant CHO-K1 cells
Details: (1): determined with method 1; read-out: S1P1 EC50
Below, each of the compounds is paired with its reported EC50 value.
Observable: EC50

- Compound: "Cc1cccc(C)c1COc1ccc(-c2ncc3c(n2)CCN(CC(C)C(=O)O)C3)cc1 (stereo not shown)"
  Reported measurement: "< 1000 nM"
- Compound: "CC(CC(=O)O)CN1CCc2nc(-c3ccc(CCc4ccc(Cl)cc4F)cc3)ncc2C1 (stereo not shown)"
  Reported measurement: "> 1000 nM"
- Compound: "O=C(O)CCN1CCc2nc(-c3ccc(OCc4ccc(F)cc4)cc3)c(F)cc2C1"
  Reported measurement: "< 1000 nM"
- Compound: "Cc1cc(-c2ccc3c(n2)CCN(CCC(=O)O)C3)ccc1OCc1ccc(F)cc1"
  Reported measurement: "> 1000 nM"

* * *

Molecular target: human S1PR1 receptor (Homo sapiens, UniProt P21453)
Construct: host or cells: CHO-K1
Test: Method 1: intracellular Ca2+ release (FLIPR, Calcium 5) in recombinant CHO-K1 cells
Type: cell-based
Conditions: (1): determined with method 1; read-out: S1P1 EC50
Protocol: Agonistic activity was measured using two different methods, described below. Method 1. Intracellular Ca^2+ Release Agonist potency and intrinsic activity was assessed by measurement of intracellular Ca^2+ release. […]
Below, each of the compounds is paired with its reported EC50 value.

- Compound: "Cc1cc(-c2ncc3c(n2)CCN(CC(C)CC(=O)O)C3)ccc1OCc1c(F)cccc1F (stereo not drawn)"
  EC50: "> 1000 nM"
- Compound: "CC(CN1CCc2nc(-c3ccc(OCc4cccc(F)c4F)cc3)ncc2C1)C(=O)O (stereo not drawn)"
  EC50: "< 1000 nM"
- Compound: "O=C(O)CCCN1CCc2nc(-c3ccc(OCc4ccccc4)cc3)ncc2C1"
  EC50: "> 1000 nM"
- Compound: "O=C(O)CCN1CCc2nc(-c3ccc(OCc4ccccc4OC(F)F)cc3)ccc2C1"
  EC50: "> 1000 nM"
- Compound: "O=C(O)CCCN1CCc2nc(C#Cc3cc(F)ccc3F)ncc2C1"
  EC50: "> 1000 nM"
- Compound: "O=C(O)C1CC(N2CCc3nc(C#Cc4ccc(Cl)cc4)ccc3C2)C1 (stereo not drawn)"
  EC50: "> 1000 nM"
- Compound: "O=C(O)C1CC(N2CCc3nc(C#Cc4ccccc4)c(F)cc3C2)C1 (stereo not drawn)"
  EC50: "> 1000 nM"
- Compound: "Cc1ccc(COc2ccc(-c3ncc4c(n3)CCN(CC(C)CC(=O)O)C4)cc2)cc1 (stereo not drawn)"
  EC50: "< 1000 nM"
- Compound: "O=C(O)C1CC(N2CCc3nc(Cc4c(F)cccc4F)ncc3C2)C1 (stereo not drawn)"
  EC50: "> 1000 nM"
